Target: recombinant ASK1 (Homo sapiens, UniProt Q99683)
Construct: purchased Carna Biosciences
Sequence (Q99683 654-971 limits assumed): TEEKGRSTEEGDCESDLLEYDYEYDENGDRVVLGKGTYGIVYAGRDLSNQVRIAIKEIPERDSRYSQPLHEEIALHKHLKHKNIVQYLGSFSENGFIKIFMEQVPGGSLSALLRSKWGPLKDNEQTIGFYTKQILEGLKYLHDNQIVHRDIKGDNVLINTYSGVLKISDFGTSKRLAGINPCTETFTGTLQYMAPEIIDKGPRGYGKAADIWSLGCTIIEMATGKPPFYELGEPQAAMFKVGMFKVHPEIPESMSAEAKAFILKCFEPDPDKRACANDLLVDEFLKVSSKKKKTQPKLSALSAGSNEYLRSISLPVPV
Assay: ASK1 Biochemical Assay (HTRF KinEASE-STK S3)
Conditions: selectivity table; read-out: ASK1 Biochemical Assay IC50
Below: a set of entries, each annotated with reported IC50.

{"columns": ["COMPOUND", "MEASUREMENT TARGET", "IC50"],
 "data": [
  ["CC(C)n1cnnc1-c1cccc(N2CCN(c3ccc(N4CC(C#N)C4)cc3)C2=O)n1 [Example 1071]", "recombinant ASK1 (Homo sapiens, UniProt Q99683)", "3.8 nM"],
  ["CNC(=O)C1CCN(c2ccc(N3CCN(c4cccc(-c5nncn5C(C)C)n4)C3=O)cc2)CC1 [Example 1082]", "recombinant ASK1 (Homo sapiens, UniProt Q99683)", "1 nM"],
  ["CC(C)n1cnnc1-c1cccc(N2CCN(c3ccc(N4CCOCC4)cc3)C2=O)n1 [Example 1043]", "recombinant ASK1 (Homo sapiens, UniProt Q99683)", "4.1 nM"],
  ["CC(C)n1cnnc1-c1cccc(N2CCN(c3ccc(N4CCC(C(=O)N(C)C)CC4)cc3)C2=O)n1 [Example 1097]", "recombinant ASK1 (Homo sapiens, UniProt Q99683)", "3.8 nM"]
]}
